// MIC collected for CRCB3

Guide cases for MIC, answers given:
CC(C)(O/N=C(\C(=O)N[C@@H]1C(=O)N2C(C(=O)[O-])=C(C[n+]3ccccc3)CS[C@H]12)c1csc(N)n1)C(=O)O    > 32 µg/mL
CN(C)[C@@H]1C(O)=C(C(N)=O)C(=O)[C@@]2(O)C(O)=C3C(=O)c4c(O)cccc4[C@@](C)(O)[C@H]3C[C@@H]12    > 32 µg/mL

Now, please, on to the next compound.
Task item: // lookup MIC for `CC1(C)S[C@@H]2[C@H](NC(=O)[C@H](N)c3ccccc3)C(=O)N2[C@H]1C(=O)O`
Reply: > 32 µg/mL

Each recorded value in this set is attributed to paper PMC12207908.
